The measured values listed here are drawn from ChEMBL document CHEMBL1201862.

tested on: Hs-578T; assay: NCI tumour cell line growth inhibition, 48 h
Calls of active or inactive are those of the source. No stated cut-off is given here; in the data, active = GI50 up to about 1.1 µM and inactive = higher.
property: GI50

Example molecules with recorded GI50:
molecule	property	value.observed
Cc1ccc(C(=O)/C=C2\Nc3cccnc3NC2=O)cc1	GI50	37.8 µM (inactive)
CSC1=N/C(=C\c2ccccc2)C(=O)N1CN1CCOCC1	GI50	47.5 µM (inactive)
COc1cc(-c2ccccc2N)c2cccnc2c1OC	GI50	3.05 µM (inactive)

Input: Field request: GI50 | item: CC(C)CC(=O)CC(O)C(Cl)(Cl)Cl (stereo not given)
Output: 56.2 µM (inactive)

Input: Field request: GI50 | item: COC(OC)C(O)C1OC=CC1n1cnc2c(N)ncnc21 (stereo not given)
Output: > 100 µM (inactive)

Input: Field request: GI50 | item: O=C1OC(=O)c2cc(S(=O)(=O)c3ccc4c(c3)C(=O)OC4=O)ccc21
Output: > 100 µM (inactive)

Input: Field request: GI50 | item: O=C1[C@@H](O)[C@@H]2CCCC[C@@]23CCCN13
Output: > 100 µM (inactive)
